B1: Pistol ribozyme (parent)
chain: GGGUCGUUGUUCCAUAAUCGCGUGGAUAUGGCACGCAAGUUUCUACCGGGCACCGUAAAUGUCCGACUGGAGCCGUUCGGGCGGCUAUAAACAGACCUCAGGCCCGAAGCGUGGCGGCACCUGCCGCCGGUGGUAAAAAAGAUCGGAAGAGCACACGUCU

variants of: B1; experiment: aptazyme ON/OFF ratio, guanine; higher = stronger switching; co-transcriptional cleavage with and without guanine
aptazyme ON/OFF ratio reference
experimental endpoint: aptazyme ON/OFF ratio

- mutation id: "U7G U8G G9U U11A C12U"
  result value: 1.54
- mutation id: "U8A G9A U10G C13U"
  result value: 1.29
- mutation id: "U7C G9C U10C C12G"
  result value: 1.07
- mutation id: "U7G U8C U10C U11C C12A C13U"
  result value: 1.2
- mutation id: "U7C U8G G9U U10G C12U C13G"
  result value: 1.1
- mutation id: "U7A G9U U10A U11A C12A C13G"
  result value: 1.14
- mutation id: "U7A G9A U10G U11A C12U C13G"
  result value: 1.06
- mutation id: "U7A G9U U10A U11C C13U"
  result value: 1.02
- mutation id: "U7A U8G G9C U10C U11A C12U C13U"
  result value: 1.2
- mutation id: "U7A U8A U10A C13A"
  result value: 1.11
- mutation id: "U7C U8G U11A C12U"
  result value: 1.15
- mutation id: "U8G G9C U10A U11G C12A C13G"
  result value: 1.14
- mutation id: "U7C U8G G9C U11G C12U C13G"
  result value: 1.21
- mutation id: "U7A U8G U10A U11A"
  result value: 2.54
- mutation id: "U7C U8G U10G U11G C12U C13A"
  result value: 1.25
- mutation id: "U7C G9A U10G U11C C13G"
  result value: 1.03
- mutation id: "U8A G9A C12U C13U"
  result value: 1.11
- mutation id: "U8C G9C U10G C12G"
  result value: 1.19
- mutation id: "U8G U10A U11G C12A C13U"
  result value: 1.12
- mutation id: "G9U U10G C12U C13U"
  result value: 1.26
- mutation id: "U8A G9C U10G C12U C13A"
  result value: 1.21
- mutation id: "U8G G9U U10G C12U C13U"
  result value: 1.06
- mutation id: "G9U U11A C13G"
  result value: 1.13
- mutation id: "U7G G9A U10C C12G"
  result value: 1.38
- mutation id: "U8G U10A C12U C13U"
  result value: 1.3
- mutation id: "U10A C12U"
  result value: 1.16
- mutation id: "U7C U8C G9A U10C U11A C12G C13U"
  result value: 1.13
- mutation id: "U7A U8G G9U U11A C12U"
  result value: 1.38
- mutation id: "U7C U8C G9A U10C U11C C12U C13A"
  result value: 1.2
- mutation id: "U7A U8G G9A U11A C12G C13U"
  result value: 1.25
- mutation id: "U7G G9U U10A"
  result value: 3.84
- mutation id: "U7C U8C G9U U10A U11G C12A C13G"
  result value: 1.05
- mutation id: "U8A U10C U11C C12U"
  result value: 1.06
- mutation id: "U7A U8G G9A U11A C12U C13G"
  result value: 1.28
